# measured_target: FhCL3 (Fasciola hepatica)
# Sequence (B3TM67 entry or part of it): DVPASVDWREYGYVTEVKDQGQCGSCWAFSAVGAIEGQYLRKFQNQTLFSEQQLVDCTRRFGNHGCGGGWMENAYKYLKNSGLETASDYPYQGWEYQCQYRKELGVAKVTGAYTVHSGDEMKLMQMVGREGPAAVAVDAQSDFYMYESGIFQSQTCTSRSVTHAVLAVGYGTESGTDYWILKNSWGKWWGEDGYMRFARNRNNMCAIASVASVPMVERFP
# test_details: Hydrolysis of fluorogenic peptidyl-NHMec substrates by recombinant FhCL3
# Assay type: biochemical
# experimental_parameters: FhCL3 compared to FhCL1
Where a SMILES comes first, the peptide text is derived from it. The star is where a group is joined. AMC = Cc1cc(=O)oc2cc(N*)ccc12; Tos = Cc1ccc(S(=O)(=O)*)cc1; Boc = CC(C)(C)OC(=O)*
Recorded kcat/Km fold increase over FhCL1 by entry
In your response, the unit should come after the numeric value.

Reference set, count: 3
compound: Cc1ccc(S(=O)(=O)NCC(=O)N2CCC[C@H]2C(=O)N[C@@H](CCCCN)C(=O)Nc2ccc3c(C)cc(=O)oc3c2)cc1 [Tos-GPK-NHMec, Tos-Gly-Pro-Lys-NHMec] (Tos-Gly-Pro-Lys-{AMC})
kcat/Km fold increase over FhCL1: 60 fold
//
compound: Cc1ccc(S(=O)(=O)NCC(=O)N2CCC[C@H]2C(=O)N[C@@H](CCCN=C(N)N)C(=O)Nc2ccc3c(C)cc(=O)oc3c2)cc1 [Tos-GPR-NHMec, Tos-Gly-Pro-Arg-NHMec] (Tos-Gly-Pro-Arg-{AMC})
kcat/Km fold increase over FhCL1: 142 fold
//
compound: Cc1cc(=O)oc2cc(NC(=O)[C@H](CCCN=C(N)N)NC(=O)[C@@H]3CCCN3C(=O)[C@@H](NC(=O)OC(C)(C)C)C(C)C)ccc12 [Boc-VPR-NHMec, Boc-Val-Pro-Arg-NHMec] (Boc-Val-Pro-Arg-{AMC})
kcat/Km fold increase over FhCL1: 3 fold

# get_value(readout='kcat/Km fold increase over FhCL1', item= Cc1cc(=O)oc2cc(NC(=O)[C@H](CCCN=C(N)N)NC(=O)[C@@H]3CCCN3C(=O)CNC(=O)[C@H](C)NC(=O)OC(C)(C)C)ccc12 [Boc-AGPR-NHMec, Boc-Ala-Gly-Pro-Arg-NHMec] (Boc-AGPR-{AMC}) ) 90 fold
